# system_tested: T1, Abp1, P15891
# T1 sequence (P15891 535-592, looked up): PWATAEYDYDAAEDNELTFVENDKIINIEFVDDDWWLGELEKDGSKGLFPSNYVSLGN
# test_name: SPOT array
# protocol_conditions: median of control spots 935
# 1 = SPOT intensity below 100 (exclusive); 0 = SPOT intensity at/above 100

{"binder": "ILARAILTIPRVLDK", "cat": 0}
{"binder": "NSVPIMPTLPPRPYI", "cat": 1}
{"binder": "SRSKPLPLTPNSKYN", "cat": 0}
{"binder": "NLDRSKISLPDFDDE", "cat": 1}
{"binder": "SRYRRPLTLLLLKPF", "cat": 1}
{"binder": "KFIPSRPAPKPPSSA", "cat": 0}
{"binder": "AGKRRLPLVRFKASD", "cat": 0}
{"binder": "NPLPKEPRLPKRKVA", "cat": 0}
{"binder": "DKSRPPRPPPKPLHL", "cat": 0}
{"binder": "KIRRSSLMIPNPQQF", "cat": 0}
{"binder": "APERAVPILPPRNNV", "cat": 1}
{"binder": "RSRRSSFAYPQQVAI", "cat": 1}
{"binder": "ITHRLRISIPGITGR", "cat": 0}
{"binder": "RPKRRAPPPVPKKPS", "cat": 0}
{"binder": "PSPSSSPPPIPKTAN", "cat": 1}
{"binder": "QQEQNTPPLPPKPKS", "cat": 1}
{"binder": "RVTRKRPREPKSTND", "cat": 0}
{"binder": "FPGKKSPRLPHRNKK", "cat": 0}
{"binder": "VNFRRIPTGPDSPPT", "cat": 1}
